B1: EMD (parent)
chain: YQSKGYNDDYYEESYFTTRTYGEP

# Variants of: B1
# Test Method Notes: protein stability index of a GFP-peptide fusion (GPS, HEK-293T) (PSI 1-6); higher = more stable;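 note: lentivirally expressed fusions sorted by FACS into six bins by GFP to DsRed ratio, PSI derived from sequencing read proportions per bin multiplied by bin number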
# Test Settings: c terminus: a fixed tail appended
Result Type: protein stability index
No unit in the answer, only the number.

Example entries and their recorded answers appear below.
>>> df
   mutation_key              result_type  result_number
0           Y6H  protein stability index           2.82
1           G5H  protein stability index           1.89
2          Y21M  protein stability index           2.97
3           Y6P  protein stability index            3.3
4          E23N  protein stability index           2.42
5           S3V  protein stability index           1.95

Problem: # get_value(readout='protein stability index', item= Y1F )
Result: 1.97

Problem: // repeat for E13S and report
Result: 2.16

Problem: // repeat for K4P and report
Result: 2.5

Problem: // repeat for S14P and report
Result: 2.62

Problem: // repeat for S14V and report
Result: 2.19

Problem: // repeat for T18F and report
Result: 1.39

Problem: // repeat for G22L and report
Result: 2.01

Problem: // repeat for G5T and report
Result: 2.52

Problem: // repeat for E12N and report
Result: 1.95

# credit: the supplement of paper PMC10567573
